Consider molecules characterized by their IC50 with UniProt:P22303.
Sequence (P22303 whole entry): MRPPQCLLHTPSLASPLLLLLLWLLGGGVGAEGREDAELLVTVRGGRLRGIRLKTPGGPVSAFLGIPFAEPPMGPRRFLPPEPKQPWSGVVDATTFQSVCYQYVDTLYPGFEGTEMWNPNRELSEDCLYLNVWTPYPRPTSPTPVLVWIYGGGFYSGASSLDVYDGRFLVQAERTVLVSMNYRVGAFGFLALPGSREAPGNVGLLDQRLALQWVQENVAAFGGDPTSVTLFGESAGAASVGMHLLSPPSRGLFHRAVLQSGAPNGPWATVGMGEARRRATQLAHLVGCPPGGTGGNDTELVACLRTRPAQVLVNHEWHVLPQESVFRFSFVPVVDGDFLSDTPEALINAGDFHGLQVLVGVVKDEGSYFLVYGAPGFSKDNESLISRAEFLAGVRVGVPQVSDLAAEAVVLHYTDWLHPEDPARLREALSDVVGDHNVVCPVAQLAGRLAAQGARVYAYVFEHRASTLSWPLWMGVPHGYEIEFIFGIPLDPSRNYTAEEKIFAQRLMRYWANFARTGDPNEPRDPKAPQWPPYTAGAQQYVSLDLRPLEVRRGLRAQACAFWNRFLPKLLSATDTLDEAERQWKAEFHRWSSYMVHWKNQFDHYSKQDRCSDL
Field format: number, assumed µM, no unit text.

molecule: Cc1c(C)c2ccc(OCC3CCN(Cc4cccc(F)c4)CC3)cc2oc1=O
val: 0.46

Continue with the molecule presented below.
Task: Kindly state the measured IC50 obtained for Cc1c(C)c2ccc(OCC3CCN(CCCC(F)F)CC3)cc2oc1=O with UniProt:P22303.
Output: 1.2

---

# test.protocol: Effective permeability of the compound in PBS buffer at pH 7.4 by PAMPA-BBB assay
# Format: ADME
# experimental.conditions: read-out: Peff
Where Papp equals or exceeds 10 ×10⁻⁶ cm/s, the correct label is yes (1); where it does not, the label is no (0).

compound: Cc1c(C)c2ccc(OCC3CCCN(CCCC(F)F)C3)cc2oc1=O (racemic)
label.value: yes (1)

compound: Cc1c(C)c2ccc(OCC3CCN(CCCC(F)F)CC3)cc2oc1=O
label.value: yes (1)

compound: CN(CCCC(F)F)Cc1ccc(COc2ccc3c(CO)cc(=O)oc3c2)cc1
label.value: yes (1)

Task: Please indicate if the recorded Papp for Cc1c(C)c2ccc(OCC3CCN(CCCO)CC3)cc2oc1=O meets or exceeds 10 ×10⁻⁶ cm/s.
Output: no (0)

Task: Please indicate if the recorded Papp for CN(CCCO)Cc1ccc(COc2ccc3c(CO)cc(=O)oc3c2)cc1 meets or exceeds 10 ×10⁻⁶ cm/s.
Output: no (0)

Task: Please indicate if the recorded Papp for Cc1c(C)c2ccc(OCC3CCCN(CCCO)C3)cc2oc1=O (racemic) meets or exceeds 10 ×10⁻⁶ cm/s.
Output: no (0)

---

# test.protocol: Chromatographic hydrophobicity index of the compound in ammonium acetate buffer at pH 7.4 by RP-HPLC analysis
# Assay type: physicochemical
property: CHI
Response field accepts a number only; no unit should be typed.

Sample records with CHI:
chemical.structure: CN(Cc1ccccc1)Cc1ccc(COc2ccc3c(CO)cc(=O)oc3c2)cc1
CHI: 99.3
//
chemical.structure: Cc1c(C)c2ccc(OCC3CCN(CCCO)CC3)cc2oc1=O
CHI: 47.3
//
chemical.structure: CN(CCCO)Cc1ccc(COc2ccc3c(CO)cc(=O)oc3c2)cc1
CHI: 35.6

Continue with the compound presented below.
Task: # input compound: Cc1c(C)c2ccc(OCC3CCN(Cc4ccccc4)CC3)cc2oc1=O ; wanted: its CHI
Output: 99.7

---

The following molecules are listed with their measured inhibition at 10 µM values.
# test.target: MAO-A (Homo sapiens, UniProt P21397)
# Sequence (P21397 whole entry): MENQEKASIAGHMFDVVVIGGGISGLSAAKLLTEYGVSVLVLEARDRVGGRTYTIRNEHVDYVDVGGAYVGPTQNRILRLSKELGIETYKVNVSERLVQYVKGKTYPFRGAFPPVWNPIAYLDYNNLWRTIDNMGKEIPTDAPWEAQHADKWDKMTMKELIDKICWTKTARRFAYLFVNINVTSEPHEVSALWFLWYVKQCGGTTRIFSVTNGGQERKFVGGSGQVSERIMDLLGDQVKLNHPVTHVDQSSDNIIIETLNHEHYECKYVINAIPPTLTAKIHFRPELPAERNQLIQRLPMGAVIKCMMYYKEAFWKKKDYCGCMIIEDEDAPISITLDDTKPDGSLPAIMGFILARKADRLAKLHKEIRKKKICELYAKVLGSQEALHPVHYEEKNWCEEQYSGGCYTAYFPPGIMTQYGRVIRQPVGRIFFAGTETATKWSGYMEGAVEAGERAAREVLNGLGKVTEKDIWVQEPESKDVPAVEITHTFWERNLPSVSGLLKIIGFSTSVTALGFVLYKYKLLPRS
# test.protocol: in vitro
# experimental.conditions: recombinant MAO-A expressed in supersomes, probe kynuramine
Field format: number, assumed %, no unit text.

Sample records with inhibition at 10 µM:
chemical.structure: Cc1c(C)c2ccc(OCc3ccc(CN(C)CCCC(F)F)cc3)cc2oc1=O
uom: %
inhibition at 10 µM: 45

chemical.structure: CN(Cc1ccccc1)Cc1ccc(COc2ccc3c(C(F)F)cc(=O)oc3c2)cc1
uom: %
inhibition at 10 µM: 17

Task: # input molecule: CN(Cc1ccc(COc2ccc3c(CO)cc(=O)oc3c2)cc1)Cc1cccc(F)c1 ; wanted: its inhibition at 10 µM
Output: 47

Task: # input molecule: Cc1c(C)c2ccc(OCC3CCN(CCCO)CC3)cc2oc1=O ; wanted: its inhibition at 10 µM
Output: 50

Task: # input molecule: CN(CCCC(F)F)Cc1ccc(COc2ccc3c(CO)cc(=O)oc3c2)cc1 ; wanted: its inhibition at 10 µM
Output: 34

Task: # input molecule: Cc1c(C)c2ccc(OCC3CCN(CCCC(F)F)CC3)cc2oc1=O ; wanted: its inhibition at 10 µM
Output: 40

Task: # input molecule: CN(CCCO)Cc1ccc(COc2ccc3c(CO)cc(=O)oc3c2)cc1 ; wanted: its inhibition at 10 µM
Output: 13

Every entry's value here was drawn from ChEMBL document CHEMBL5046285.
